Data credit: paper PMC6001687

Test: Plasma pharmacokinetics after topical application, QBX1‐2 study
Type: in vivo, human
Conditions: human, plasma, topical, 5 g of 3% ointment twice daily
measure name: Tmax (h)
State just the number; it will be interpreted in h.

Query: Tmax; subject: C[C@H]1CN(C(=O)CC#N)[C@]12CCN(c1ncnc3[nH]ccc13)C2
4
